IC50 values for the compounds below.
- target.or.test.system: recombinant N-terminal GST-tagged human Rho kinase 1 (ROCK1, amino acids 1-535) (Homo sapiens, UniProt Q13464)
- Construct: ROCK1, amino acids 1-535; purchased Invitrogen Inc. PV-3691
- Sequence (Q13464 1-535): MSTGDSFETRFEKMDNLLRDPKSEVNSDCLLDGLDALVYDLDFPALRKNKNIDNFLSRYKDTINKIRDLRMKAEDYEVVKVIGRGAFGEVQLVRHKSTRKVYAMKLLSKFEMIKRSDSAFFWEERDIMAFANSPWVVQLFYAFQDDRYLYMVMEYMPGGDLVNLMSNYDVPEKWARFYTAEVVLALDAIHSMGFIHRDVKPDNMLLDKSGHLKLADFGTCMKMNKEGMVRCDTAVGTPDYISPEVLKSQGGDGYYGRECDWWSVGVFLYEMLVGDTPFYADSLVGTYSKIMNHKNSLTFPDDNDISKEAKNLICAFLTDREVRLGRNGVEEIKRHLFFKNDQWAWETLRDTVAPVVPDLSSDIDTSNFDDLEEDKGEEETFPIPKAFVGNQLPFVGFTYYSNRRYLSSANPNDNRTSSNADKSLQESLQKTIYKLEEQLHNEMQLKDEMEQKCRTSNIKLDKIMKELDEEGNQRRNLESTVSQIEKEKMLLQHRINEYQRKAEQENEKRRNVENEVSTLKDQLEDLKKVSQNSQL
- method.description: In vitro Rho kinase assay (luciferase-based ATP consumption), ROCK1
- Assay type: biochemical
- protocol.conditions: recombinant GST-tagged human ROCK1, luciferase-based ATP consumption; read-out: ROCK1 IC50
- Experimental: In Vitro Rho Kinase Assay Rho kinase biochemical assays described below depend on firefly luciferase-based, indirect measurement of total ATP consumption by the kinase following incubation with substrate and ATP. […] After an additional 10 minute incubation at room temperature (about 22° C.), luminescence activity is measured on a Molecular Devices Analyst multi-mode plate reader or other suitable plate reader. […] Negative control activity is measured with DMSO lacking any test compound. […]

Recorded results for 4 compounds are shown here.
COc1ccc(C=CC(=O)NCc2ccc3sc(-c4ccnc(N)n4)c(C)c3c2)cc1O : < 5 µM
Cc1c(-c2ccnc(N)n2)sc2ccc(CNC(=O)c3ccc(C(F)(F)F)cc3[N+](=O)[O-])cc12 : < 5 µM
CCN(CC)CCNC(=O)c1cccc(Cc2ccc3sc(-c4ccnc(N)n4)c(C)c3c2)c1 : < 5 µM
CCCCCc1ccc(C(=O)NCc2ccc3sc(-c4ccnc(N)n4)c(C)c3c2)cc1 : < 5 µM

Lab note: measured IC50 of `Cc1c(-c2ccnc(N)n2)sc2ccc(CNC(=O)c3cnc(O)c(Cl)c3)cc12` was < 5 µM

Lab note: measured IC50 of `Cc1cc(C)c(C(=O)NCc2ccc3sc(-c4ccnc(N)n4)c(C)c3c2)c(C)c1` was > 5 µM

Lab note: measured IC50 of `CC(=O)c1cccc(C(=O)NCc2ccc3sc(-c4ccnc(N)n4)c(C)c3c2)c1` was > 5 µM
